# MEASUREMENT TARGET: canine FcRn (FcRn large subunit with canine beta-2-microglobulin) (canine)
# PROCEDURE TEXT: SPR pH 6.0, SASA-Fc captured on BSA, FcRn 100-800 nM
I'd be grateful if you could share measured koff for these entries.
Expressed in s⁻¹, but write only the number.

query: # return recorded koff for entry wild-type canine IgGB Fc (CH2-CH3) with N-terminal SASA tag (Fc fusion, part only; not given: SASA tag, not shown: another chain or arm of the molecule; small tags and cut ends) Fc: APEMLGGPSVFIFPPKPKDTLLIARTPEVTCVVVDLDPEDPEVQISWFVDGKQMQTAKTQPREEQFNGTYRVVSVLPIGHQDWLKGKQFTCKVNNKALPSPIERTISKARGQAHQPSVYVLPPSREELSKNTVSLTCLIKDFFPPDIDVEWQSNGQQEPESKYRTTPPQLDEDGSYFLYSKLSVDKSRWQRGDTFICAVMHEALHNHYTQESLSHSPGK
result: 0.417

query: # return recorded koff for entry canine IgGB Fc (CH2-CH3) T286L with N-terminal SASA tag (Fc fusion, part only; not given: SASA tag, not shown: another chain or arm of the molecule; small tags and cut ends) Fc: APEMLGGPSVFIFPPKPKDTLLIARTPEVTCVVVDLDPEDPEVQISWFVDGKQMQLAKTQPREEQFNGTYRVVSVLPIGHQDWLKGKQFTCKVNNKALPSPIERTISKARGQAHQPSVYVLPPSREELSKNTVSLTCLIKDFFPPDIDVEWQSNGQQEPESKYRTTPPQLDEDGSYFLYSKLSVDKSRWQRGDTFICAVMHEALHNHYTQESLSHSPGK
result: 0.253
